Tested on: Bacillus subtilis
procedure_text: Antibacterial activity against Bacillus subtilis ATCC 23857 assessed as reduction in bacterial cell growth incubated for 16 to 24 hrs by CLSI-protocol based Mueller-Hinton Broth micro-dilution method
Type: functional
condition_parameters: time 16-24 hrs
Peptide text beside a SMILES is read from it. * marks the point of attachment. Lauroyl = CCCCCCCCCCCC(=O)*; Decanoyl = CCCCCCCCCC(=O)*; Octanoyl = CCCCCCCC(=O)*; Hexanoyl = CCCCCC(=O)*; Butyryl = CCCC(=O)*
metric_name: MIC (µM)
One number for each entry, in µM.

compound	quantity_unit	MIC
CCCCCC(=O)NCC(=O)N[C@@H](CC(C)C)C(=O)N[C@@H](CC(C)C)C(=O)N[C@@H](CCCCN)C(=O)N[C@@H](CCCNC(=N)N)C(=O)N[C@H](C(=O)N[C@@H](CCCCN)C(=O)N[C@H](C(=O)N[C@@H](CC(C)C)C(=O)N[C@@H](CC(C)C)C(N)=O)[C@@H](C)O)[C@@H](C)CC (Hexanoyl-GLLKRIKTLL-NH2)	µM	16
CCCC(=O)NCC(=O)N[C@@H](CC(C)C)C(=O)N[C@@H](CC(C)C)C(=O)N[C@@H](CCCCN)C(=O)N[C@@H](CCCNC(=N)N)C(=O)N[C@H](C(=O)N[C@@H](CCCCN)C(=O)N[C@H](C(=O)N[C@@H](CC(C)C)C(=O)N[C@@H](CC(C)C)C(N)=O)[C@@H](C)O)[C@@H](C)CC (Butyryl-GLLKRIKTLL-NH2)	µM	256

For each entry beneath this line, provide reported MIC.
1. CCCCCCCC(=O)NCC(=O)N[C@@H](CC(C)C)C(=O)N[C@@H](CC(C)C)C(=O)N[C@@H](CCCCN)C(=O)N[C@@H](CCCNC(=N)N)C(=O)N[C@H](C(=O)N[C@@H](CCCCN)C(=O)N[C@H](C(=O)N[C@@H](CC(C)C)C(=O)N[C@@H](CC(C)C)C(N)=O)[C@@H](C)O)[C@@H](C)CC (Octanoyl-GLLKRIKTLL-NH2)
2. CCCCCCCCCC(=O)NCC(=O)N[C@@H](CC(C)C)C(=O)N[C@@H](CC(C)C)C(=O)N[C@@H](CCCCN)C(=O)N[C@@H](CCCNC(=N)N)C(=O)N[C@H](C(=O)N[C@@H](CCCCN)C(=O)N[C@H](C(=O)N[C@@H](CC(C)C)C(=O)N[C@@H](CC(C)C)C(N)=O)[C@@H](C)O)[C@@H](C)CC (Decanoyl-GLLKRIKTLL-NH2)
3. CCCCCCCCCCCC(=O)NCC(=O)N[C@@H](CC(C)C)C(=O)N[C@@H](CC(C)C)C(=O)N[C@@H](CCCCN)C(=O)N[C@@H](CCCNC(=N)N)C(=O)N[C@H](C(=O)N[C@@H](CCCCN)C(=O)N[C@H](C(=O)N[C@@H](CC(C)C)C(=O)N[C@@H](CC(C)C)C(N)=O)[C@@H](C)O)[C@@H](C)CC (Lauroyl-GLLKRIKTLL-NH2)

Output:
8
8
16
